Data origin, for the record: PubChem BioAssay

Test: growth inhibitors of H69AR lung tumor, primary screen, human, duplicate replicates (AID 580)
Details: H69AR lung tumor cells viability, ATP luminescence, 72 h; at 10 µM
Activity calls are given as the source filed them.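 Rule for the calls: active = viability at or under a set limit in both replicates, limit being median viability minus 3 SD (cut at about 48% in these data, passing the limit was not always enough); inconclusive = at or under the limit in just one replicate; inactive = at or above the limit in both replicates.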
Reply using exactly one outcome from active, inactive

{"COMPOUND": "CN(C)C=Nc1nonc1N", "LABEL_CLASS": "inactive"}
{"COMPOUND": "CCN1CCN(c2cc3c(cc2F)c(=O)c(C(=O)O)cn3C2CC2)CC1", "LABEL_CLASS": "inactive"}
{"COMPOUND": "CC(C)OC(=O)CSc1nc2cccnc2n1C1CCCCC1", "LABEL_CLASS": "inactive"}
{"COMPOUND": "CCOC(=O)N1CCN(S(=O)(=O)c2cc(Cl)ccc2Cl)CC1", "LABEL_CLASS": "inactive"}
{"COMPOUND": "Cc1ccc(-c2cc(C(=O)O)n[nH]2)o1", "LABEL_CLASS": "inactive"}
{"COMPOUND": "N/C(=N/O)c1nc(N2CCCC2)nc(N(c2ccccc2)c2ccccc2)n1", "LABEL_CLASS": "inactive"}
{"COMPOUND": "O=C(CCn1c(=O)sc2ccccc21)Nc1nccs1", "LABEL_CLASS": "inactive"}
{"COMPOUND": "C/C(NC1CCCC1)=C(/C#N)C(N)=O", "LABEL_CLASS": "inactive"}
{"COMPOUND": "CCCCOc1cc(=O)[nH]c(=O)[nH]1", "LABEL_CLASS": "inactive"}
{"COMPOUND": "O=C(CSc1ncccn1)NCc1ccccc1", "LABEL_CLASS": "inactive"}

Problem: Entry CCn1c(C(=O)N2CCCC(C(=O)NCCCc3ccccc3)C2)cc2sccc21 (stereo not drawn) : call = ?
Solution: inactive

Problem: Entry `CC(C)(S)[C@@H](N)C(=O)O` : call = ?
Solution: inactive

Problem: Entry `O=C(O)c1cc(-c2ccccc2Cl)n[nH]1` : call = ?
Solution: inactive

Problem: Entry `CCCn1c(C)nc2c(c1=O)c1nc3ccccc3nc1n2CCc1ccccc1` : call = ?
Solution: inactive

Problem: Entry COC(=O)C(O)(CC(=O)c1ccc(OC)cc1)C(F)(F)F (stereo not drawn) : call = ?
Solution: inactive

Problem: Entry `CC(C)[N+](C)(CCOC(=O)C1c2ccccc2Oc2ccccc21)C(C)C` : call = ?
Solution: inactive

Problem: Entry `O=C(COc1ccccc1)N1CCN(C(=O)c2cccc(F)c2)CC1` : call = ?
Solution: inactive

Problem: Entry `COc1ncnc2c1N=C1CC(C)(C)CC(N)=C1S2` : call = ?
Solution: inactive

Problem: Entry `CCOC(=O)C1CCN(c2c(Nc3ccc4c(c3)OCCO4)c(=O)c2=O)CC1` : call = ?
Solution: inactive

Problem: Entry `CCc1ccccc1NC(=O)CCc1nc(-c2ccc(C)cc2)no1` : call = ?
Solution: inactive

Problem: Entry `CCCCn1c(CN2CCN(c3cccc(Cl)c3)CC2)nc2c1c(=O)n(C)c(=O)n2C` : call = ?
Solution: inactive

Problem: Entry `Cc1oc(-c2ccccc2F)nc1CS(=O)(=O)CC(=O)NCCCN1CCc2ccccc2C1` : call = ?
Solution: inactive

Problem: Entry `c1ccc(Cn2nnnc2CN2CCN(c3ncccn3)CC2)cc1` : call = ?
Solution: inactive
